system: Toxoplasma gondii; test: Antiparasitic activity against Toxoplasma gondii after 4 days by chlorophenol red-beta-D-galactosidase based assay; assay type: functional, organism-based; settings: 96 h
pIC50: −log10 of the molar value.
Measured Attribute: pIC50

Give reported pIC50 value for c1ccc2ncccc2c1 [QUINOLINE]
5.22 to 5.30

State its pIC50: O=[N+]([O-])c1cccc2ncccc12
5.22 to 5.30

----------
We begin with a simple list: items and their reported IC50.
system: Toxoplasma gondii; test: Antiparasitic activity against Toxoplasma gondii after 4 days by chlorophenol red-beta-D-galactosidase based assay; format: functional, organism-based; conditions: 96 h
Numbers only here, please. The scale is µM.

Supply IC50 value. Item: FC(F)(F)c1ccc2c(NCCCN3CCN(c4cccc5nc(Cl)ccc45)CC3)ccnc2c1
0.425

Pending compound:
Look up and report measured IC50 for this entry: Oc1cccc2cccnc12
0.213
